- System: Staphylococcus aureus
- experimentDescription: Antibacterial activity against methicillin-sensitive Staphylococcus aureus 15 assessed as inhibition of bacterial growth by CLSI based micro broth double dilution method
- Format: functional
propertyName: MIC (µg/mL)
Answers are plain numbers, in µg/mL.

{"entrySmiles": "CC[C@H]1OC(=O)[C@@](C)(F)C(=O)[C@H](C)[C@@H](O[C@@H]2O[C@H](C)C[C@H](N(C)C)[C@H]2O)[C@@](C)(OC)C[C@@H](C)C(=O)[C@H](C)[C@H]2N(CCCN(C(=O)c3ccccc3)c3cnc4ccccc4c3)C(=O)O[C@]12C", "MIC (µg/mL)": 0.25}
{"entrySmiles": "CCCCN(CCCN1C(=O)O[C@]2(C)[C@@H](CC)OC(=O)[C@@](C)(F)C(=O)[C@H](C)[C@@H](O[C@@H]3O[C@H](C)C[C@H](N(C)C)[C@H]3O)[C@@](C)(OC)C[C@@H](C)C(=O)[C@H](C)[C@@H]12)c1ccnc2ccccc12", "MIC (µg/mL)": 0.06}
{"entrySmiles": "CC[C@H]1OC(=O)[C@@](C)(F)C(=O)[C@H](C)[C@@H](O[C@@H]2O[C@H](C)C[C@H](N(C)C)[C@H]2O)[C@@](C)(OC)C[C@@H](C)C(=O)[C@H](C)[C@H]2N(CCCNc3cnc4ccccc4c3)C(=O)O[C@]12C", "MIC (µg/mL)": 0.12}
{"entrySmiles": "CC[C@H]1OC(=O)[C@@](C)(F)C(=O)[C@H](C)[C@@H](O[C@@H]2O[C@H](C)C[C@H](N(C)C)[C@H]2O)[C@@](C)(OC)C[C@@H](C)C(=O)[C@H](C)[C@H]2N(CCCn3ccc(=O)c4ccccc43)C(=O)O[C@]12C", "MIC (µg/mL)": 0.12}

Next up:
-- ask Look at this compound and give its reported MIC. CC[C@H]1OC(=O)[C@@](C)(F)C(=O)[C@H](C)[C@@H](O[C@@H]2O[C@H](C)C[C@H](N(C)C)[C@H]2O)[C@@](C)(OC)C[C@@H](C)C(=O)[C@H](C)[C@H]2N(CCCOc3ccnc4ccccc34)C(=O)O[C@]12C
-- reply 1
